System: anti-amyloid fibril antibody OC
Assay: Slot blot assay with anti-amyloid fibril antibody OC
Assay type: binding
Details: 10 μg recombinant protein; OC at 1:5,000 dilution
endpoint-name: reactivity with anti-amyloid fibril antibody OC

[
  {
    "molecule": "S71A (protein) chain 1: MKKFLLLAVLAVSASAFAATDAASLVGELQALDAEYQNLANQEEARFNEERAQADAARQALAQNEQVYNELSQRAQRLQAEANTRFYKSQYQELASKYEDALKKLEAEMEQQKAVISDFEKIQALRAGN chain 2: ATDAASLVGELQALDAEYQNLANQEEARFNEERAQADAARQALAQNEQVYNELSQRAQRLQAEANTRFYKAQYQELASKYEDALKKLEAEMEQQKAVISDFEKIQALRAGN",
    "measured-result": "reacted"
  },
  {
    "molecule": "L14A (protein) ATDAASLVGELQAADAEYQNLANQEEARFNEERAQADAARQALAQNEQVYNELSQRAQRLQAEANTRFYKSQYQELASKYEDALKKLEAEMEQQKAVISDFEKIQALRAGN",
    "measured-result": "did not react"
  },
  {
    "molecule": "FadAc: recombinant active heterogeneous complex of pre-FadA and mFadA (protein) chain 1: MKKFLLLAVLAVSASAFAATDAASLVGELQALDAEYQNLANQEEARFNEERAQADAARQALAQNEQVYNELSQRAQRLQAEANTRFYKSQYQELASKYEDALKKLEAEMEQQKAVISDFEKIQALRAGN chain 2: ATDAASLVGELQALDAEYQNLANQEEARFNEERAQADAARQALAQNEQVYNELSQRAQRLQAEANTRFYKSQYQELASKYEDALKKLEAEMEQQKAVISDFEKIQALRAGN",
    "measured-result": "reacted"
  },
  {
    "molecule": "L76A (protein) ATDAASLVGELQALDAEYQNLANQEEARFNEERAQADAARQALAQNEQVYNELSQRAQRLQAEANTRFYKSQYQEAASKYEDALKKLEAEMEQQKAVISDFEKIQALRAGN",
    "measured-result": "did not react"
  }
]
